# Test system: OVCAR-4 ovarian
# runDescription: NCI tumour cell line growth inhibition, 48 h
measuredEndpoint: GI50

C[n+]1c(/C=C/c2c[nH]c3ccccc23)ccc2ccccc21: 7.07 µM
O=C1CC[C@H](N2C(=O)c3cccc4c(Cc5ccc(CN6CCOCC6)cc5)ccc2c34)C(=O)N1: 21.9 µM
NS(=O)(=O)OCC1OC(n2cnc3cncnc32)C(O)C1O (centres undefined): 0.0103 µM
CN(C)c1ccc(/C=C/C(=O)[O-])cc1.CN(C)c1ccc(/C=C/C(=O)[O-])cc1.[Cu+2]: 14.9 µM
COC(=O)[C@@H](C)C[C@H](Cc1cn(C)c2ccccc12)NC(=O)c1csc([C@@H](C[C@H](C(C)C)N(C)C(=O)[C@@H](NC(=O)[C@H]2CCCCN2C)C(C)C)OC(C)=O)n1: 0.575 µM
c1ccc(N2N=C(c3cccc(Nc4ccncc4)c3)CC2c2ccc3c(c2)OCO3)cc1 (centres undefined): 1.53 µM

For every listed record, write down its GI50.
1. Cc1cccc(-c2[nH]ncc2-c2ccc3ncccc3n2)n1
2. C[C@]12CC[C@@H]3c4cc(OC(F)F)c(O)cc4CC[C@H]3[C@@H]1CC[C@@H]2OS(N)(=O)=O
3. O=c1cc(-c2ccccc2)oc2ccc(OC/C(=N/O)c3ccccc3)cc12

1: > 22.4 µM; 2: 15.8 µM; 3: 29 µM

Value source: PubChem BioAssay (NCI)
